Origin of measurements: paper PMC6768852

Target: IMP2 KH4 VL MUT (KH34)
Assay: EMSA
Conditions: EMSA: 100 pM RNA, 10 mM Tris, 100 mM NaCl, 0.1 mM EDTA, 0.01 mg/mL tRNA, 50 ug/mL heparin, 0.01% IGEPAL CA630, room temperature, 3 h; pH not stated
OBSERVATION_TYPE: pKd
Answers are plain numbers, as −log10 of the molar value.

What value of pKd has been recorded for this entry: ACCGGACUGUUACCAACACCCACACCCC [C28 beta-actin zipcode WT]
6.46

* * *

Biological target: IMP2 KH34 double VL MUT (UniProt Q9Y6M1)
Sequence (Q9Y6M1 whole entry): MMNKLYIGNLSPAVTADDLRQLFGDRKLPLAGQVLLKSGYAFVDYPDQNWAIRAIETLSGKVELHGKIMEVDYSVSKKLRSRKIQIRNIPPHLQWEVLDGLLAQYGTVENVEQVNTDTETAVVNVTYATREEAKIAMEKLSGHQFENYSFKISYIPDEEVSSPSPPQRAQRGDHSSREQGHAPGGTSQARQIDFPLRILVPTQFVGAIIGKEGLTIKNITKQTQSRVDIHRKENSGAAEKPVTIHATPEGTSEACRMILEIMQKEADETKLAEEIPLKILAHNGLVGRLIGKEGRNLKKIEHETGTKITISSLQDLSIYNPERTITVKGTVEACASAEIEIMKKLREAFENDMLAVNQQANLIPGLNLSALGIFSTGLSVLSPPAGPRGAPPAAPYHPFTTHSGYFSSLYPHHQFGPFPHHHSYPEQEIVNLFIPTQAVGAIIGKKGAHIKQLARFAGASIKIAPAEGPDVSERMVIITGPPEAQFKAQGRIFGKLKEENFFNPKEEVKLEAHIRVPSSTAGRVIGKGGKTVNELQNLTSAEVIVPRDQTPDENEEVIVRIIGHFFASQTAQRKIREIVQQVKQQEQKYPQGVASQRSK
Experiment: EMSA
Conditions: EMSA: 100 pM RNA, 10 mM Tris, 100 mM NaCl, 0.1 mM EDTA, 0.01 mg/mL tRNA, 50 ug/mL heparin, 0.01% IGEPAL CA630, room temperature, 3 h; pH not stated
OBSERVATION_TYPE: pKd
Answers are plain numbers, as −log10 of the molar value.

Lab request: please report pKd under test system IMP2 KH34 double VL MUT (UniProt Q9Y6M1) for ACCGGACUGUUACCAACACCCACACCCC [C28 beta-actin zipcode WT]
7.58
